Test: Antagonist activity at human P2Y12 receptor assessed as inhibition of ADP-induced platelet-rich plasma aggregation by turbidimetric method
Assign IC50 to each entry below.

>>> result("CCOC(=O)N1CCN(C(=O)[C@H](CCC(=O)O)NC(=O)c2cc(N3CCC(N4CCCC4)CC3)cc(-c3ccccc3)n2)CC1")
"2 µM"
>>> result("CCCCCOC(=O)N1CCN(C(=O)[C@H](CCC(=O)O)NC(=O)c2cc(N3CCC(O)CC3)cc(-c3ccccc3)n2)CC1")
"2.4 µM"

Quick request: IC50 for each listed item, please.
1. C=CCOC(=O)N1CCN(C(=O)[C@H](CCC(=O)O)NC(=O)c2cc(OCCOC)cc(-c3ccccc3)n2)CC1
2. CCOC(=O)N1CCN(C(=O)[C@H](CCC(=O)O)NC(=O)c2cc(N3CCC(CN)CC3)cc(-c3ccccc3)n2)CC1

Key:
["13.3 µM", "3.3 µM"]

###

Experiment: Antagonist activity at human P2Y12 receptor assessed as inhibition of ADP-induced platelet-rich plasma aggregation by turbidimetric method
QUANTITY KIND: IC50 (µM)
Numbers only, in µM.

>>> numeric_result("CCOC(=O)N1CCN(C(=O)[C@H](CCC(=O)O)NC(=O)c2cc(OCCO)cc(-c3ccccc3)n2)CC1")
7.6

Quick request: IC50 for each listed item, please.
1. CCCCCCOC(=O)N1CCN(C(=O)[C@H](CCC(=O)O)NC(=O)c2cccc(-c3ccccc3)n2)CC1
2. CCOC(=O)N1CCN(C(=O)[C@H](CCC(=O)O)NC(=O)c2cc(OCC3CCNCC3)cc(-c3ccccc3)n2)CC1
3. NCC1CCN(c2cc(C(=O)N[C@@H](CCC(=O)O)C(=O)N3CCN(C(=O)OCCC4CCCC4)CC3)nc(-c3ccccc3)c2)CC1
4. CCOC(=O)N1CCN(C(=O)[C@H](CCC(=O)O)NC(=O)c2cc(NCCN(C)C)cc(-c3ccccc3)n2)CC1
5. CCOC(=O)N1CCN(C(=O)[C@H](CCC(=O)O)NC(=O)c2cc(OCCN)cc(-c3ccccc3)n2)CC1
6. COCCOc1cc(C(=O)N[C@@H](CCC(=O)O)C(=O)N2CCN(C(=O)OC(C)C)CC2)nc(-c2ccccc2)c1
7. CC(C)OC(=O)N1CCN(C(=O)[C@H](CCC(=O)O)NC(=O)c2cc(OCCO)cc(-c3ccccc3)n2)CC1

Key:
19
4
14.1
36
7.5
20.1
25.6

Quick request: IC50 for each listed item, please.
1. CCCCCOC(=O)N1CCN(C(=O)[C@H](CCC(=O)O)NC(=O)c2cc(OCCO)cc(-c3ccccc3)n2)CC1
2. CCCCCOC(=O)N1CCN(C(=O)[C@H](CCC(=O)O)NC(=O)c2cc(OCCCC)cc(-c3ccccc3)n2)CC1

Key:
11.5
28.4

Quick request: IC50 for each listed item, please.
1. CCOC(=O)N1CCN(C(=O)[C@H](CCC(=O)O)NC(=O)c2cc(OCCOC)cc(-c3ccccc3)n2)CC1
2. CCCCCOC(=O)N1CCN(C(=O)[C@H](CCC(=O)O)NC(=O)c2cc(N3CCC(CN)CC3)cc(-c3ccccc3)n2)CC1
3. C=CCOC(=O)N1CCN(C(=O)[C@H](CCC(=O)O)NC(=O)c2cc(OC3CCNCC3)cc(-c3ccccc3)n2)CC1
4. CCOC(=O)N1CCN(C(=O)[C@H](CCC(=O)O)NC(=O)c2cc(OCCCO)cc(-c3ccccc3)n2)CC1

Key:
1: 5.8; 2: 0.77; 3: 9.4; 4: 9

###

Test: Antagonist activity at human P2Y12 receptor assessed as inhibition of ADP-induced platelet-rich plasma aggregation by turbidimetric method
Assign IC50 to each entry below.
Answers are plain numbers, in µM.

Known IC50 results, listed for orientation:
>>> numeric_result("CCOC(=O)N1CCN(C(=O)[C@H](CCC(=O)O)NC(=O)c2cc(OCc3ccccc3)cc(-c3ccccc3)n2)CC1")
31
>>> numeric_result("CCCCCCOC(=O)N1CCN(C(=O)[C@H](CCC(=O)O)NC(=O)c2cc(N(C)CCS(C)(=O)=O)cc(-c3ccccc3)n2)CC1")
17.7
>>> numeric_result("CCCCCOC(=O)N1CCN(C(=O)[C@H](CCC(=O)O)NC(=O)c2cc(N(C)CCS(C)(=O)=O)cc(-c3ccccc3)n2)CC1")
4.1
>>> numeric_result("CCCOC(=O)N1CCN(C(=O)[C@H](CCC(=O)O)NC(=O)c2cccc(-c3ccccc3)n2)CC1")
62

Quick request: IC50 for each listed item, please.
1. CCOC(=O)N1CCN(C(=O)[C@H](CCC(=O)O)NC(=O)c2cc(OC)cc(-c3ccccc3)n2)CC1
2. CCCCCCCOC(=O)N1CCN(C(=O)[C@H](CCC(=O)O)NC(=O)c2cccc(-c3ccccc3)n2)CC1
3. CCCCCOC(=O)N1CCN(C(=O)[C@H](CCC(=O)O)NC(=O)c2cc(OCCOC)cc(-c3ccccc3)n2)CC1
4. CCCCCOC(=O)N1CCN(C(=O)[C@H](CCC(=O)O)NC(=O)c2cccc(-c3ccccc3)n2)CC1
5. CCOC(=O)N1CCN(C(=O)[C@H](CCC(=O)O)NC(=O)c2cc(N3CCC(COC)CC3)cc(-c3ccccc3)n2)CC1
6. CCCCCCOC(=O)N1CCN(C(=O)[C@H](CCC(=O)O)NC(=O)c2cc(N3CCC(CN)CC3)cc(-c3ccccc3)n2)CC1

Key:
1. 39
2. 56
3. 4.3
4. 15
5. 9.9
6. 1.6

###

Assay: Antagonist activity at human P2Y12 receptor assessed as inhibition of ADP-induced platelet-rich plasma aggregation by turbidimetric method
Could you please mark YES for values of IC50 below 10 µM and NO for values at or above it?

Exercise: Identify whether the compound CCOC(=O)N1CCN(C(=O)[C@H](CCC(=O)O)NC(=O)c2cc(NCCOC)cc(-c3ccccc3)n2)CC1 records IC50 below 10 µM.
Key: NO

Exercise: Identify whether the compound CCCCCOC(=O)N1CCN(C(=O)[C@H](CCC(=O)O)NC(=O)c2cc(OC3CCNCC3)cc(-c3ccccc3)n2)CC1 records IC50 below 10 µM.
Key: YES

Exercise: Identify whether the compound CCOC(=O)N1CCN(C(=O)[C@H](CCC(=O)O)NC(=O)c2cc(NC3CCOCC3)cc(-c3ccccc3)n2)CC1 records IC50 below 10 µM.
Key: NO

Exercise: Identify whether the compound CCOC(=O)N1CCN(C(=O)[C@H](CCC(=O)O)NC(=O)c2cc(NCc3ccccc3)cc(-c3ccccc3)n2)CC1 records IC50 below 10 µM.
Key: NO

###

Assign log10 IC50 to each entry below.
Experiment: Antagonist activity at human P2Y12 receptor assessed as inhibition of ADP-induced platelet-rich plasma aggregation by turbidimetric method
Values are log10 of IC50 in µM.

>>> numeric_result("C=CCOC(=O)N1CCN(C(=O)[C@H](CCC(=O)O)NC(=O)c2cc(OCCCC)cc(-c3ccccc3)n2)CC1")
1.79
>>> numeric_result("CCOC(=O)N1CCN(C(=O)[C@H](CCC(=O)O)NC(=O)c2cc(N(C)CCS(C)(=O)=O)cc(-c3ccccc3)n2)CC1")
0.88
>>> numeric_result("CCCCOc1cc(C(=O)N[C@@H](CCC(=O)O)C(=O)N2CCN(C(=O)OCC)CC2)nc(-c2ccccc2)c1")
1.53

Quick request: log10 IC50 for each listed item, please.
1. CCOC(=O)N1CCN(C(=O)[C@H](CCC(=O)O)NC(=O)c2cc(OC3CCNCC3)cc(-c3ccccc3)n2)CC1
2. CCOC(=O)N1CCN(C(=O)[C@H](CCC(=O)O)NC(=O)c2cc(N3CCC(N)CC3)cc(-c3ccccc3)n2)CC1
3. CCCCOC(=O)N1CCN(C(=O)[C@H](CCC(=O)O)NC(=O)c2cc(OC3CCNCC3)cc(-c3ccccc3)n2)CC1

Key:
[0.28, 0.45, 0.04]

###

Assay: Antagonist activity at human P2Y12 receptor assessed as inhibition of ADP-induced platelet-rich plasma aggregation by turbidimetric method
pIC50: −log10 of the molar value.
Use 5 as the dividing line for pIC50, with the line itself on the Satisfied side and lower values as Not satisfied.

Record excerpt, results attached:
>>> category_label("CCOC(=O)N1CCN(C(=O)[C@H](CCC(=O)O)NC(=O)c2cc(NC)cc(-c3ccccc3)n2)CC1")
"Not satisfied"
>>> category_label("CCOC(=O)N1CCN(C(=O)[C@H](CCC(=O)O)NC(=O)c2cc(N3CCN(CCN(C)C)CC3)cc(-c3ccccc3)n2)CC1")
"Satisfied"
>>> category_label("CCCNc1cc(C(=O)N[C@@H](CCC(=O)O)C(=O)N2CCN(C(=O)OCC)CC2)nc(-c2ccccc2)c1")
"Not satisfied"
>>> category_label("Cc1cccc(N2CCN(C(=O)[C@H](CCC(=O)O)NC(=O)c3cc(-c4ccccc4)cc(-c4ccccc4)n3)CC2)c1")
"Not satisfied"
>>> category_label("CCCCOC(=O)N1CCN(C(=O)[C@H](CCC(=O)O)NC(=O)c2cc(OCCCC)cc(-c3ccccc3)n2)CC1")
"Not satisfied"

Please look at the following compound next.
Exercise: hey, is pIC50 for this one >= 5? COC(=O)N1CCN(C(=O)[C@H](CCC(=O)O)NC(=O)c2cccc(-c3ccccc3)n2)CC1
Key: Not satisfied
